assay: Anticancer activity against human LX2 cells measured after 48 hrs by alamar blue assay; assay type: functional, cell-based; conditions: LX-2, 48 h
observedProperty: pEC50
The scale used: pEC50 is minus the common logarithm of the concentration in molar units.

Look at this compound and give its reported pEC50. C=C1C(=O)[C@]23[C@H](O)[C@H]1CC[C@H]2[C@@]12CO[C@]3(O)[C@@H](O)[C@@H]1C(C)(C)CC[C@@H]2O 5.15

====

experiment: Antiproliferative activity against human […] cells after 72 hrs by MTT assay; format: functional, cell-based
observedProperty: pEC50
The scale used: pEC50 is minus the common logarithm of the concentration in molar units.

itemSmiles	reportedMeasurement
C=C1C(=O)[C@@]23C(=O)O[C@H]4CCC(C)(C)[C@H]5C(=O)OC[C@@]45[C@@H]2CC[C@@H]1[C@H]3OC(=O)c1ccc(Cl)cc1	6.05
C=C1C(=O)[C@@]23C(=O)O[C@H]4CCC(C)(C)[C@H]5[C@H](O)OC[C@@]45[C@@H]2CC[C@@H]1[C@H]3OC(=O)c1ccc(C)cc1	6.00
C=C1C(=O)[C@@]23C(=O)O[C@H]4CCC(C)(C)[C@H]5C(=O)OC[C@@]45[C@@H]2CC[C@@H]1[C@H]3OC(C)=O	5.86
C=C1C(=O)[C@]23[C@H](O)[C@H]1CC[C@H]2[C@@]12CO[C@]3(O)[C@@H](O)[C@@H]1C(C)(C)CC[C@@H]2O	5.13
C=C1C(=O)[C@@]23C(=O)O[C@H]4CCC(C)(C)[C@H]5C(=O)OC[C@@]45[C@@H]2CC[C@@H]1[C@H]3OC(=O)c1ccc(C)cc1	5.80
C=C1C(=O)[C@@]23C(=O)O[C@H]4CCC(C)(C)[C@H]5C(=O)OC[C@@]45[C@@H]2CC[C@@H]1[C@H]3OC(=O)c1ccccc1	6.10

Look at this compound and give its reported pEC50. C=C1C(=O)[C@@]23C(=O)O[C@H]4CCC(C)(C)[C@H]5[C@H](O)OC[C@@]45[C@@H]2CC[C@@H]1[C@H]3OC(=O)c1ccccc1 5.85

Okay, and C=C1C(=O)[C@@]23C(=O)O[C@H]4CCC(C)(C)[C@H]5[C@H](O)OC[C@@]45[C@@H]2CC[C@@H]1[C@H]3OC(=O)c1ccccc1Cl ? 6.07

Okay, and C=C1C(=O)[C@]23[C@H](OC(=O)c4ccccc4C(=O)OCCCOc4no[n+]([O-])c4S(=O)(=O)c4ccccc4)[C@H]1CC[C@H]2[C@@]12CO[C@@]3(O)[C@@H](O)[C@@H]1C(C)(C)CC[C@@H]2O ? 6.07

Okay, and C=C1C(=O)[C@@]23C(=O)O[C@H]4CCC(C)(C)[C@H]5[C@H](O)OC[C@@]45[C@@H]2CC[C@@H]1[C@H]3OC(C)=O ? 5.71

Okay, and C=C1C(=O)[C@@]23C(=O)O[C@H]4CCC(C)(C)[C@H]5C(=O)OC[C@@]45[C@@H]2CC[C@@H]1[C@H]3OC(=O)c1ccccc1Cl ? 6.14

Okay, and C=C1C(=O)[C@@]23C(=O)O[C@H]4CCC(C)(C)[C@H]5C(=O)OC[C@@]45[C@@H]2CC[C@@H]1[C@H]3OC(=O)c1cccnc1 ? 6.15

====

test: Antiproliferative activity against human CaEs17 cells after 72 hrs by MTT assay; type: functional, cell-based; conditions: CaEs17, 72 h
observedProperty: EC50 (nM)
Answer in nM, number only, no unit symbol.

Solved cases (2 shown):
itemSmiles	uom	reportedMeasurement
C=C1C(=O)[C@@]23C(=O)O[C@H]4CCC(C)(C)[C@H]5C(=O)OC[C@@]45[C@@H]2CC[C@@H]1[C@H]3OC(=O)c1ccccc1Cl	nM	280
C=C1C(=O)[C@@]23C(=O)O[C@H]4CCC(C)(C)[C@H]5[C@H](O)OC[C@@]45[C@@H]2CC[C@@H]1[C@H]3OC(=O)c1ccccc1	nM	540

Now take the following molecule into account.
Look at this molecule and give its reported EC50. C=C1C(=O)[C@@]23C(=O)O[C@H]4CCC(C)(C)[C@H]5[C@H](O)OC[C@@]45[C@@H]2CC[C@@H]1[C@H]3OC(=O)c1ccc(C)cc1 450

====

assay: Oral bioavailability in Wistar rat at 20 mg/kg administered as single dose through gavage measured after 48 hrs by HPLC/ESI-MS analysis; format: ADME, organism-based; conditions: in vivo
observedProperty: bioavailability (%)
Answer in %, number only, no unit symbol.

Look at this compound and give its reported bioavailability. C=C1C(=O)[C@]23[C@H](O)[C@H]1CC[C@H]2[C@@]12CO[C@]3(O)[C@@H](O)[C@@H]1C(C)(C)CC[C@@H]2O 4.3
